Test system: rats
Test Protocol: Diuretic effect in rats
Format: in vivo, Wister strain male rats
Condition Parameters: Rattus norvegicus, po, 5 h, dosage 20 mg/kg, urine volume up to 5 hours, % of control
Outcome Measure: response vs control in vivo at 20 mg/kg (%)
Expressed in %, but write only the number.

Exercise: Find the recorded response vs control in vivo at 20 mg/kg belonging to "CC(=O)N1CCC(=NO)c2cc(Cl)ccc21" and report it.
Solution: 260

Exercise: Find the recorded response vs control in vivo at 20 mg/kg belonging to "CCOC(=O)N1CCC(=NO)c2cc(F)ccc21" and report it.
Solution: 285

Exercise: Which response vs control in vivo at 20 mg/kg value is on record for "CN(C)C(=O)N1CCC(=NO)c2cc(F)ccc21" ?
Solution: 209

Exercise: State the recorded response vs control in vivo at 20 mg/kg for this entry: "CC(=O)N1CCC(=NO)c2cc(Br)ccc21"
Solution: 234

Exercise: Endpoint output: response vs control in vivo at 20 mg/kg of "CCCC(=O)N1CCC(=NO)c2cc(Cl)ccc21" . Value?
Solution: 240

Exercise: I would be grateful if you could share the reported response vs control in vivo at 20 mg/kg for "CN(C)C(=O)N1CCC(=NO)c2cc(Cl)ccc21" .
Solution: 263

Exercise: # lookup: response vs control in vivo at 20 mg/kg of "CCOC(=O)N1CCC(=NO)c2cc(Cl)ccc21"
Solution: 310

---

Tested on: rats
Test Protocol: Diuretic effect in rats
Assay type: in vivo, Wister strain male rats
Condition Parameters: Rattus norvegicus, po, 5 h, dosage 50 mg/kg, urine volume up to 5 hours, % of control
# y = response vs control in vivo at 50 mg/kg below 200% (exclusive); n = response vs control in vivo at 50 mg/kg at/above 200%

Exercise: # TODO verify response vs control in vivo at 50 mg/kg < 200% strictly for this compound: CC(C)C(=O)N1CCC(=NO)c2cc(Cl)ccc21 [Compound IV]
Solution: n

Exercise: Item CCCCC(=O)N1CCC(=NO)c2cc(Cl)ccc21 [Compound V] : response vs control in vivo at 50 mg/kg beneath 200%, strictly?
Solution: n

Exercise: Hi there! Is response vs control in vivo at 50 mg/kg for O=C(C=Cc1ccccc1)N1CCC(=NO)c2cc(Cl)ccc21 [Compound VIII] below 200%, do you know?
Solution: n

Exercise: Hello, I'm reviewing records and need to know if response vs control in vivo at 50 mg/kg of CC(C)C(=O)N1CCC(=NO)c2cc(Br)ccc21 [XVII] is below 200%. Could you check?
Solution: y

Exercise: Regarding CNC(=O)N1CCC(=NO)c2cc(Cl)ccc21 [XIX] , kindly confirm whether its response vs control in vivo at 50 mg/kg is beneath 200%.
Solution: y

---

Test Protocol: Properties of respective derivatives (solubility)
Type: physicochemical
Condition Parameters: methanol, acetone and chloroform
Outcome Measure: Solubility in methanol, acetone and chloroform

Molecule | Result
CC(C)CC(=O)N1CCC(=NO)c2cc(Cl)ccc21 [Compound VI] | easily soluble
CC(C)C(=O)N1CCC(=NO)c2cc(Cl)ccc21 [Compound IV] | easily soluble
CCCC(=O)N1CCC(=NO)c2cc(Cl)ccc21 [Compound III] | easily soluble

---

System: rats
Test Protocol: Diuretic effect in rats
Type: in vivo, Wister strain male rats
Condition Parameters: Rattus norvegicus, po, 5 h, dosage 10 mg/kg, urine volume up to 5 hours, % of control
Description: Wister strain male rats weighing about 200 g were starved overnight and each compound of this invention suspended in 25 ml/kg of physiological saline were administered orally to the 5 animals in each group, and the diuretic effect up to 5 hours after the administration was measured. The diuretic effect is expressed as the average urine volume (%) of the treated group divided by that of the control group.
Rule: response vs control in vivo at 10 mg/kg below 300% gives T. Equal to or above 300% gives F.

Exercise: Dear colleague, could you confirm whether response vs control in vivo at 10 mg/kg of CC(=O)N1CCC(=NO)c2cc(Cl)ccc21 [Compound I] falls below 300%? Thanks.
Solution: T

Exercise: Record COC(=O)N1CCC(=NO)c2cc(Cl)ccc21 [Compound X] : is its response vs control in vivo at 10 mg/kg strictly below 300%?
Solution: F

Exercise: Does CCC(=O)N1CCC(=NO)c2cc(Br)ccc21 [XVI] have response vs control in vivo at 10 mg/kg strictly under 300%?
Solution: F

Exercise: Please let me know if CCCC(=O)N1CCC(=NO)c2cc(Cl)ccc21 [Compound III] shows response vs control in vivo at 10 mg/kg below 300%.
Solution: T

Exercise: Is it true that response vs control in vivo at 10 mg/kg reported for CCC(=O)N1CCC(=NO)c2cc(F)ccc21 [Compound XV] is less than 300%?
Solution: F

Exercise: Does this compound meet the criterion response vs control in vivo at 10 mg/kg < 300%? CN(C)C(=O)N1CCC(=NO)c2cc(F)ccc21 [XXI]
Solution: T

Exercise: Decide: response vs control in vivo at 10 mg/kg of CN(C)C(=O)N1CCC(=NO)c2cc(Cl)ccc21 [XXII] strictly below 300%?
Solution: T

Exercise: Find out if reported response vs control in vivo at 10 mg/kg for CCOC(=O)N1CCC(=NO)c2cc(F)ccc21 [Compound XII] is less than 300%
Solution: T

Exercise: Is the reported response vs control in vivo at 10 mg/kg for COC(=O)N1CCC(=NO)c2cc(F)ccc21 [IX] strictly below 300%?
Solution: F

Exercise: Field: below-cutoff. Rule: recorded response vs control in vivo at 10 mg/kg strictly less than 300%. Subject: CCC(=O)N1CCC(=NO)c2cc(Cl)ccc21 [Compound II]
Solution: F

Exercise: Below 300% on response vs control in vivo at 10 mg/kg? Entry CCOC(=O)N1CCC(=NO)c2cc(Cl)ccc21 [Compound XIII]
Solution: T

---

Test Protocol: Acute oral toxicity in mice
Condition Parameters: mouse, in vivo, mortality 7 days after administration
Outcome Measure: LD50 at 168 h

Exercise: Bench note: what LD50 at 168 h did CC(C)CC(=O)N1CCC(=NO)c2cc(Cl)ccc21 [Compound VI] show?
Solution: > 5000 mg/kg

Exercise: Field request: LD50 at 168 h | item: CCC(=O)N1CCC(=NO)c2cc(Br)ccc21 [XVI]
Solution: 4710 mg/kg

Exercise: Name the recorded LD50 at 168 h for CCCC(=O)N1CCC(=NO)c2cc(Cl)ccc21 [Compound III] .
Solution: > 5000 mg/kg

Exercise: Requested field: LD50 at 168 h. Item: CC(=O)N1CCC(=NO)c2cc(Cl)ccc21 [Compound I]
Solution: > 5000 mg/kg

Exercise: Form field: reported LD50 at 168 h of CCC(=O)N1CCC(=NO)c2cc(F)ccc21 [Compound XV]
Solution: 3440 mg/kg

Exercise: Request the reported LD50 at 168 h associated with COC(=O)N1CCC(=NO)c2cc(Cl)ccc21 [Compound X]
Solution: 4470 mg/kg

Exercise: What value of measured LD50 at 168 h is listed for CCOC(=O)N1CCC(=NO)c2cc(Cl)ccc21 [Compound XIII] ?
Solution: > 5000 mg/kg

Exercise: What LD50 at 168 h value was documented for this compound, CC(C)C(=O)N1CCC(=NO)c2cc(Br)ccc21 [XVII] ?
Solution: > 5000 mg/kg

Exercise: Recorded LD50 at 168 h of CN(C)C(=O)N1CCC(=NO)c2cc(F)ccc21 [XXI] , please.
Solution: > 5000 mg/kg

---

System: rats
Test Protocol: Diuretic effect in rats
Format: in vivo, Wister strain male rats
Condition Parameters: Rattus norvegicus, po, 5 h, dosage 50 mg/kg, urine volume up to 5 hours, % of control
Protocol: Wister strain male rats weighing about 200 g were starved overnight and each compound of this invention suspended in 25 ml/kg of physiological saline were administered orally to the 5 animals in each group, and the diuretic effect up to 5 hours after the administration was measured. The diuretic effect is expressed as the average urine volume (%) of the treated group divided by that of the control group.
Outcome Measure: response vs control in vivo at 50 mg/kg (%)
# unit: % | format: bare number

Exercise: Need response vs control in vivo at 50 mg/kg of "O=C(Cc1ccccc1)N1CCC(=NO)c2cc(Cl)ccc21" , thanks.
Solution: 202

Exercise: Fill in the blank: the reported response vs control in vivo at 50 mg/kg of "CC(C)CC(=O)N1CCC(=NO)c2cc(Cl)ccc21" is ____.
Solution: 196

Exercise: Request the reported response vs control in vivo at 50 mg/kg associated with "CN(C)C(=O)N1CCC(=NO)c2cc(Br)ccc21"
Solution: 200

Exercise: // lookup response vs control in vivo at 50 mg/kg for "CNC(=O)N1CCC(=NO)c2cc(Br)ccc21"
Solution: 197

Exercise: Given the entry "O=C(C=Cc1ccccc1)N1CCC(=NO)c2cc(Br)ccc21" , report its measured response vs control in vivo at 50 mg/kg.
Solution: 203

The reported numbers originate from patent US4440770A.
